molecular target: T1, cynomolgus soluble urokinase plasminogen activator receptor (suPAR) (cynomolgus, UniProt Q9GK78 23-303, limits assumed); experiment: off-rate (kdis) screen of scFv clones, biosensor (Octet)
T1 construct: Target antigen of the off-rate screen; also called cynomolgus uPAR; cynomolgus suPAR
T1 sequence (Q9GK78 23-303 limits assumed): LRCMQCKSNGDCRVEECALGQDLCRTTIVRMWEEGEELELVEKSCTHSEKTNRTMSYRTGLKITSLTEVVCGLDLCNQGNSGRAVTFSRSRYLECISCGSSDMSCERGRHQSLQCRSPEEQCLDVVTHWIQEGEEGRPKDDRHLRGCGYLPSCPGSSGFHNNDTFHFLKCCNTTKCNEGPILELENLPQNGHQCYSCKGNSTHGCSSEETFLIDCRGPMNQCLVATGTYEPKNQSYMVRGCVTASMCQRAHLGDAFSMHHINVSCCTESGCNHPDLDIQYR
Observation type: log10 koff (log10 of the value in s⁻¹)
Values below are the log10 of the recorded koff, with s⁻¹ as the unit.

Below, each entry is followed by its recorded log10 koff result.
suPAR_DB01_E09 (scFv, V domains shown, screened as scFv) VH: QVQLVQSGAEVKKPGASVKVSCKASGYTFTSYYMHWVRQAPGQGLEWMGWIDHENGNTIYDQKFQGRVTMTRDTSTSTVYMELSSLRSEDTAVYYCARGYDVDWFVYWGQGTLVTVSS VL: DIQMTQSPSSLSASVGDRVTITCSARSSISYMYWYQQKPGKAPKLLIYRTSNLQSGVPSRFSGSGSGTDFTLTISSLQPEDFATYYCQQYHSYPPTFGGGTKVEIK : -3.61
suPAR_DB01_D09 (scFv, V domains shown, screened as scFv) VH: QVQLVQSGAEVKKPGASVKVSCKASGYTFTNYYMHWVRQAPGQGLEWMGWIDHSNGNTIYAQKFQGRVTMTRDTSTSTVYMELSSLRSEDTAVYYCARGYDVDWFVYWGQGTLVTVSS VL: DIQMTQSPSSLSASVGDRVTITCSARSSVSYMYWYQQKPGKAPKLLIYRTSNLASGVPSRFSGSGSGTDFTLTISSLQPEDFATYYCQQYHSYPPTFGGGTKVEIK : -3.30
suPAR_DB01_B10 (scFv, V domains shown, screened as scFv) VH: QVQLVQSGAEVKKPGASVKVSCKASGYTFSSYYMHWVRQAPGQGLEWMGWIDPENGSTIYDQKFQGRVTMTRDTSTSTVYMELSSLRSEDTAVYYCARGYDVDWFVYWGQGTLVTVSS VL: DIQMTQSPSSLSASVGDRVTITCSARQSVSSMYWYQQKPGKAPKLLIYRTSNLASGVPSRFSGSGSGTDFTLTISSLQPEDFATYYCQQYHSYPPTFGGGTKVEIK : -2.97

Task item: Entry suPAR_DB01_C04 (scFv, V domains shown, screened as scFv) VH: QVQLVQSGAEVKKPGASVKVSCKASGYTFTGYYMHWVRQAPGQGLEWMGWIDPEGGSTIYDQKFQGRVTMTRDTSTSTVYMELSSLRSEDTAVYYCARGYDVDWFVYWGQGTLVTVSS VL: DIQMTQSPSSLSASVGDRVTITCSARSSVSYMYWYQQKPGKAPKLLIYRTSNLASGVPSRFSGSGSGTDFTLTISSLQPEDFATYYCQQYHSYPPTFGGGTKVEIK : reported log10 koff = ?
Reply: -3.52

Task item: Entry suPAR_DB01_E12 (scFv, V domains shown, screened as scFv) VH: QVQLVQSGAEVKKPGASVKVSCKASGGTFSSYAISWVRQAPGQGLEWLGVINPGGGGTNYAQKFQGRVTMTRDTSTSTVYMELSSLRSEDTAVYYCARGYDVDWFVTWGQGTLVTVSS VL: DIQMTQSPSSLSASVGDRVTITCQASQDISNYINWYQQKPGKAPKLLIYDASNLASGVPSRFSGSGSGTDFTLTISSLQPEDFATYYCQQYHSYPPTFGGGTKVEIK : reported log10 koff = ?
Reply: -1.67

Task item: Entry suPAR_DB01_B06 (scFv, V domains shown, screened as scFv) VH: QVQLVQSGAEVKKPGASVKVSCKASGYTFTDYYMHWVRQAPGQGLEWMGWIDHENGNTIYDQKFQGRVTMTRDTSTSTVYMELSSLRSEDTAVYYCARGYDVDWFVYWGQGTLVTVSS VL: DIQMTQSPSSLSASVGDRVTITCRARSSVSYMYWYQQKPGKAPKLLIYRTSNLASGVPSRFSGSGSGTDFTLTISSLQPEDFATYYCQQYHSYPPTFGGGTKVEIK : reported log10 koff = ?
Reply: -6.25
